test: antimalarial activity against Dd2 strain (AID 2302);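 also: 0% = DMSO untreated growth and 100% = chloroquine plus artemisinin killed control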; conditions: P. falciparum Dd2 in RBCs, LDH growth readout, 72 h; at 2 µM
Activity calls are given as the source filed them.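 The calls were made as follows: active = growth inhibition above 50% at the single 2 µM test dose, taken to imply half-maximal potency below 2 µM; inactive = the rest.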
Select the matching outcome among 1 (yes) for active, 0 (no) for inactive

Reference set, count: 8
# COMPOUND, ANSWER LABEL
rows = [
    ("Cc1nc(-c2cccc(Nc3nccc(NCC(O)c4ccc(C(F)(F)F)cc4)n3)c2)cs1 (stereo not drawn)", "1 (yes)"),
    ("O=C(Nc1cc(Cl)cc(Cl)c1)Nc1ccccc1C(=O)NC1CCCCC1", "1 (yes)"),
    ("O=C(Nc1cccc(-c2ccc(-c3nc4ccccc4[nH]3)s2)c1)c1ccncc1", "0 (no)"),
    ("COc1ccc2nccc([C@@H](O)CN3CCC(NCc4ccc5nc[nH]c(=O)c5c4)CC3)c2c1", "0 (no)"),
    ("Fc1ccc(C=NNc2ccnc3ccc(C(F)(F)F)cc23)cc1", "0 (no)"),
    ("CCc1ccc(NC(=O)c2cccc(CN3CCCN(CC4CCCCC4)CC3)c2)cc1", "0 (no)"),
    ("COc1cccc2cc(C(=O)N[C@@H](CC(C)C)C(=O)N[C@H](/C=N/NC(=O)Cc3cccnc3)CCc3ccccc3)oc12", "1 (yes)"),
    ("COc1c(C2CCN(CCCCNC(=O)c3ccc(-c4ccc(C#N)cc4)cc3)CC2)cc(Cl)c2c1CCCC2", "1 (yes)"),
]

With those in mind, consider the next compound.
**Query** Which outcome was assigned to Cn1cncc1C(=O)Nc1cccc(-c2ccc(-c3nc4ccc(C(F)(F)F)cc4[nH]3)cc2)c1 in this test?
**Result** 1 (yes)

----------
assay: inhibition of 3D7 malaria parasite growth – strain 3D7 (AID 2306);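 also: 0% = DMSO wells and 100% = chloroquine plus artemisinin control wells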; conditions: P. falciparum 3D7 erythrocytic growth, LDH absorbance, 72 h; at 2 µM; stronger effect = higher value
Measured growth inhibition of individual entries
Hi! Could you send only the number? It should be in %, unit omitted.

Solved cases (3 shown):
# COMPOUND, growth inhibition (%)
records = [
    ("COc1ccc(C)cc1NC(=O)CSc1nc2cccnc2n1C1CCCCC1", 89),
    ("COc1cc(C(=O)NCCCN2CCN(c3cccc(Cl)c3)CC2)ccc1-c1cc2cc(Cl)c(Cl)cc2[nH]1", 100),
    ("COC(=O)c1c(C#N)c(OC)cc(O)c1CSC[C@@H](CN1CCCCC1)Nc1nc(-c2ccc([N+](=O)[O-])cc2)cs1", 101),
]

**Query** Which growth inhibition value belongs to CCC(C)OC(=O)C1=C(C)NC2=C(C(=O)CC(c3ccc(OC)c(OC)c3)C2)C1c1ccc(O)cc1 (configuration not stated) ?
**Result** 101

**Query** Then Clc1ccc2c(NN=Cc3ccccc3)ccnc2c1 ?
**Result** 100

**Query** Same again, this time with CC(=O)Nc1nnc(SCc2c(C)cc(C(C)(C)C)cc2C)s1
**Result** 98

**Query** Then what about the compound Oc1ccc(Br)cc1-c1nc2ccc(Cl)cc2nc1-c1cc(Br)ccc1O ?
**Result** 100

**Query** Again, but for C(=NNc1cc(-c2ccccc2)nc2ccccc12)c1cccnc1
**Result** 87

**Query** Param item: O=C(CC(=O)Nc1cc(Cl)cc(Cl)c1)Nc1cc(Cl)cc(Cl)c1
**Result** 95

**Query** Also check CCCc1c(Cl)cc(CNCCCNc2nc3ccncc3[nH]2)cc1Cl
**Result** 98

**Query** Request: OCC1CCN(Cc2ccc(-c3ccc(-c4nc5ccc(F)cc5[nH]4)cc3)cc2)CC1
**Result** 100

**Query** Can you handle O=C(CCN1C(=O)c2ccccc2C1=O)N1CCN(CC=Cc2ccccc2)CC1 next?
**Result** 87
